Data provenance is the supplement of paper PMC12137928.

Test system: HCT116
Method: efficacy (maximum % inhibition of viability vs DMSO); higher = more cytotoxic
Applied Conditions: 72 h; ICRF193 200 nM
Measured Quantity: efficacy (%)

>>> print(df.to_string())
                                   compound  reported_value
0  O=C(O)C[C@H](O)C[C@H](O)/C=C/c1c(C2CC2)nc2ccccc2c1-c1ccc(F)cc1             110
1  Cc1cc(Nc2ncc(Cl)c(Nc3ccccc3S(=O)(=O)C(C)C)n2)c(OC(C)C)cc1C1CCNCC1             105
2  Oc1cccc2cccnc12 [OXYQUINOLINE HEMISULFATE]            88.8
3  CCOC(=O)C1=C(C)NC(C)=C(C(=O)OCC)C1c1ccccc1/C=C/C(=O)OC(C)(C)C             108
4  O=C(c1ccc(F)c(F)c1Nc1ccc(I)cc1F)N1CC(O)([C@@H]2CCCCN2)C1            75.9
5  O=C(Nc1ccc(Cl)cc1)Nc1ccc(Cl)c(C(F)(F)F)c1            98.1
6  CC(=O)[C@H]1CC[C@H]2[C@@H]3C=CC4=CC(=O)CC[C@@]4(C)[C@@H]3CC[C@]12C            41.7
7  COc1cccc2c1C(=O)c1c(O)c3c(c(O)c1C2=O)C[C@@](O)(C(C)=O)C[C@@H]3O[C@H]1C[C@H](N)[C@H](O)[C@H](C)O1            83.8

====

Below, each entry is listed with its recorded IC50 cell viability.
System: HCT116
Applied Conditions: 72 h; ICRF193 200 nM
Where a name gives a salt, the structure may show the parent alone.
Measured Quantity: IC50 cell viability

>>> df
                                    molecule    measured_quantity  reported_value
 0  O=C1Cc2cc(CCN3CCN(c4nsc5ccccc45)CC3)c(Cl)cc2N1  IC50 cell viability       > 45.8 µM
 1  N#Cc1ccc2c(c1)N(CCCN1CCC(O)CC1)c1ccccc1S2  IC50 cell viability       > 45.8 µM
 2  CC1(C)[C@@H](O)CC[C@]2(C)[C@H]3C(=O)C=C4[C@@H]5C[C@@](C)(C(=O)O)CC[C@]5(C)CC[C@@]4(C)[C@]3(C)CC[C@@H]12  IC50 cell viability       > 45.8 µM
 3  CC(C)(C)NC(=O)[C@H]1CC[C@H]2[C@@H]3CC=C4C=C(C(=O)O)CC[C@]4(C)[C@H]3CC[C@]12C [Epristeride]  IC50 cell viability       > 45.8 µM
 4       Oc1ccc([C@@H]2CNCc3c2ccc(O)c3O)cc1O  IC50 cell viability       > 45.8 µM
 5  CNCc1cc(-c2ccccc2F)n(S(=O)(=O)c2cccnc2)c1  IC50 cell viability       > 45.8 µM
 6        Cc1c(Nc2ncccc2C(=O)O)cccc1C(F)(F)F  IC50 cell viability       > 45.8 µM
 7  CCC[C@@]1(CCc2ccccc2)CC(O)=C([C@H](CC)c2cccc(NS(=O)(=O)c3ccc(C(F)(F)F)cn3)c2)C(=O)O1  IC50 cell viability       > 45.8 µM
 8  CCCCC(=O)OCC(=O)[C@]1(O)Cc2c(O)c3c(c(O)c2[C@@H](O[C@H]2C[C@H](NC(=O)C(F)(F)F)[C@H](O)[C@H](C)O2)C1)C(=O)c1c(OC)cccc1C3=O  IC50 cell viability         2.31 µM
 9  C[C@@H](CN1CC(=O)NC(=O)C1)N1CC(=O)NC(=O)C1 [Dexrazoxane hydrochloride]  IC50 cell viability       > 45.8 µM
10  CCC(CC)(CNC(=O)CCCO)c1cccc(OC)c1 [Embutramide]  IC50 cell viability       > 45.8 µM
11  O=C(O)CCC/C=C\CC1C(O)CC(O)C1/C=C/C(O)COc1cccc(Cl)c1 (stereo not given) [Cloprostenol (sodium salt)]  IC50 cell viability       > 45.8 µM
12  CO/N=C(\C(=O)N[C@@H]1C(=O)N2C(C(=O)O)=C(CSC(=O)c3ccco3)CS[C@H]12)c1csc(N)n1 [CEFTIOFUR HYDROCHLORIDE]  IC50 cell viability       > 45.8 µM
13  CC(=O)OC[C@H]1O[C@@H](n2ccc(=O)[nH]c2=O)[C@H](OC(C)=O)[C@@H]1OC(C)=O [Uridine triacetate]  IC50 cell viability       > 45.8 µM
14     CCC[C@@H]1CC(=O)N([C@@H](CC)C(N)=O)C1  IC50 cell viability       > 45.8 µM
